- target under test: Bifunctional epoxide hydrolase 2 (Homo sapiens)
- assay details: Inhibition of human recombinant soluble epoxide hydrolase using (3-phenyl-oxiranyl)-acetic acid cyano-(6-methoxy-naphtalen-2-yl)-methyl ester as substrate incubated for 15 mins prior to substrate addition by fluorescence assay
property label: pIC50
Answer as the number alone; pIC50 is minus log10 of concentration in mol/L.

Previously resolved entries follow.
1) CCCCNC(=O)N1CCC(c2cc(C)nn2-c2ccc(S(N)(=O)=O)cc2)CC1    5.00
2) Cc1cc(C2CCN(C(=O)NC3CCCCC3)CC2)n(-c2ccc(S(N)(=O)=O)cc2)n1    6.56

Task item: State the recorded pIC50 for this entry: Cc1ccc(NC(=O)N2CCC(c3cc(C)nn3-c3ccc(S(N)(=O)=O)cc3)CC2)cc1
Reply: 6.65

Task item: State the recorded pIC50 for this entry: Cc1cc(C2CCN(C(=O)NC(C)C)CC2)n(-c2ccc(S(N)(=O)=O)cc2)n1
Reply: 4.65

Task item: State the recorded pIC50 for this entry: Cc1cc(C2CCN(C(=O)Nc3ccccc3)CC2)n(-c2ccc(S(C)(=O)=O)cc2)n1
Reply: 6.66

----------
Entries and their measured inhibition follow.
- target under test: Bifunctional epoxide hydrolase 2 (Homo sapiens)
- assay details: Inhibition of human recombinant soluble epoxide hydrolase using (3-phenyl-oxiranyl)-acetic acid cyano-(6-methoxy-naphtalen-2-yl)-methyl ester as substrate at 100 uM incubated for 15 mins prior to substrate addition by fluorescence assay
Express the result in % but write the number alone.

Previously resolved entries follow.
1) CCCCNC(=O)N1CCC(c2cc(C)nn2-c2ccc(S(N)(=O)=O)cc2)CC1    82
2) CCCNC(=O)N1CCC(c2cc(C)nn2-c2ccc(S(C)(=O)=O)cc2)CC1    54
3) CCNC(=O)N1CCC(c2cc(C)nn2-c2ccc(S(N)(=O)=O)cc2)CC1    23.3
4) Cc1cc(C2CCN(C(=O)NC3CCCCC3)CC2)n(-c2ccc(S(N)(=O)=O)cc2)n1    99
5) Cc1cc(C2CCN(C(=O)c3ccc(Cl)cc3)CC2)n(-c2ccc(S(C)(=O)=O)cc2)n1    54
6) Cc1cc(C2CCN(C(=O)c3ccc([N+](=O)[O-])cc3)CC2)n(-c2ccc(S(N)(=O)=O)cc2)n1    0
7) Cc1cc(C2CCN(C(=O)c3ccccc3)CC2)n(-c2ccc(S(C)(=O)=O)cc2)n1    54
8) Cc1cc(C2CCN(C(=O)NC(C)C)CC2)n(-c2ccc(S(C)(=O)=O)cc2)n1    45.4

Task item: State the recorded inhibition for this entry: COc1ccc(C(=O)N2CCC(c3cc(C)nn3-c3ccc(S(N)(=O)=O)cc3)CC2)cc1
Reply: 32.9

Task item: State the recorded inhibition for this entry: CCCC(=O)N1CCC(c2cc(C)nn2-c2ccc(S(N)(=O)=O)cc2)CC1
Reply: 68.7

Task item: State the recorded inhibition for this entry: Cc1cc(C2CCN(C(=O)NC3CCCCC3)CC2)n(-c2ccc(S(C)(=O)=O)cc2)n1
Reply: 114

----------
- target under test: Bifunctional epoxide hydrolase 2 (Homo sapiens) (UniProt P34913)
- Sequence (P34913 whole entry): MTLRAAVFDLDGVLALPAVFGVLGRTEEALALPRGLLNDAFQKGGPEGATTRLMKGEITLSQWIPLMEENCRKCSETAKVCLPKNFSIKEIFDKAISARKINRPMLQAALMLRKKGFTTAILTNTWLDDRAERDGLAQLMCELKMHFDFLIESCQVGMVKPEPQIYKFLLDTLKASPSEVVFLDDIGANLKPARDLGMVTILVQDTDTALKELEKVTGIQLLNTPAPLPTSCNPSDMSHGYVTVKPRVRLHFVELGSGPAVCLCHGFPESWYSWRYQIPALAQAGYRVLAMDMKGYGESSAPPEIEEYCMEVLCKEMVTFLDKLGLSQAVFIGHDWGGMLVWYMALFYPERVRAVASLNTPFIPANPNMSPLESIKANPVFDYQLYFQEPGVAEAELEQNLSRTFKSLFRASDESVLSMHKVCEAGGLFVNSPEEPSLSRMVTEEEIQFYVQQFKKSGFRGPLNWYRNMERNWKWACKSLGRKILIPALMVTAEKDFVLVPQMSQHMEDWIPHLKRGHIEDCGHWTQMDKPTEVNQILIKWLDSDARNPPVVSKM
- assay details: Inhibition of human recombinant soluble epoxide hydrolase using (3-phenyl-oxiranyl)-acetic acid cyano-(6-methoxy-naphtalen-2-yl)-methyl ester as substrate at 100 uM incubated for 15 mins prior to substrate addition by fluorescence assay
Entries and their measured inhibition follow.
Express the result in % but write the number alone.

Previously resolved entries follow.
1) COc1ccc(C(=O)N2CCC(c3cc(C)nn3-c3ccc(S(C)(=O)=O)cc3)CC2)cc1    15.2
2) CCCC(=O)N1CCC(c2cc(C)nn2-c2ccc(S(C)(=O)=O)cc2)CC1    54
3) Cc1ccc(C(=O)N2CCC(c3cc(C)nn3-c3ccc(S(C)(=O)=O)cc3)CC2)cc1    42.1

Task item: State the recorded inhibition for this entry: CCc1ccccc1NC(=O)N1CCC(c2cc(C)nn2-c2ccc(S(C)(=O)=O)cc2)CC1
Reply: 54

Task item: State the recorded inhibition for this entry: Cc1cc(C2CCN(C(=O)c3ccc([N+](=O)[O-])cc3)CC2)n(-c2ccc(S(C)(=O)=O)cc2)n1
Reply: 54
